STUDY_SYSTEM: HLA-A*30:01
MEASUREMENT_PROTOCOL: IEDB peptide-MHC binding, purified MHC/competitive/radioactivity; filed as Kd, often an IC50 or EC50 that approximates it; bounds were set here for any values at or beyond the usual limits of such assays
MEASUREMENT_CONDITIONS: source organism: Dengue virus 2 Jamaica/1409/1983
ENDPOINT: pKd
Field pKd (float): negative decimal logarithm of the concentration in molar.

I have this sequence here, "KVRSNAALG" , and I need its recorded pKd.
8.61

----------
STUDY_SYSTEM: HLA-B*18:01
MEASUREMENT_PROTOCOL: IEDB peptide-MHC binding, purified MHC/direct/fluorescence; filed as Kd, often an IC50 or EC50 that approximates it; bounds were set here for any values at or beyond the usual limits of such assays
MEASUREMENT_CONDITIONS: source organism: Giardia intestinalis
pKd: −log10 of the molar value.
ENDPOINT: pKd

May I ask what pKd has been recorded for "RTMPLSRFT" ?
≤ 4.70

----------
STUDY_SYSTEM: HLA-B*08:01
MEASUREMENT_PROTOCOL: IEDB peptide-MHC binding, purified MHC/direct/fluorescence; filed as Kd, often an IC50 or EC50 that approximates it; bounds were set here for any values at or beyond the usual limits of such assays
MEASUREMENT_CONDITIONS: source organism: Giardia lamblia ATCC 50803
Recorded Kd by entry

INSERT INTO measurements (macromolecule_sequence, endpoint, value_observed) VALUES
  ('RTMPLSRFT', 'Kd', '≥ 20 µM');

Field: next sequence
Need Kd, item "IHKPRPPAT"
≥ 20 µM

----------
STUDY_SYSTEM: HLA-A*68:02
MEASUREMENT_PROTOCOL: IEDB peptide-MHC binding, purified MHC/competitive/radioactivity; filed as Kd, often an IC50 or EC50 that approximates it; bounds were set here for any values at or beyond the usual limits of such assays
MEASUREMENT_CONDITIONS: source organism: Dengue virus 1 Brazil/97-11/1997
Measured pKd, listed per entry for reference.
The read-out pKd is expressed as -log10 of concentration in moles per litre.

Report pKd for "ETQHGTVLV" tested on HLA-A*68:02.
8.60

What is its pKd for HLA-A*68:02? Entry: "LTAIANQAAI"
7.64

Requested read-out pKd, target or system HLA-A*68:02, entry "ESITLATGPL"
7.00

Quick check: pKd on HLA-A*68:02, item "EVAETQHGTV" ?
8.82

----------
STUDY_SYSTEM: HLA-A*68:23
MEASUREMENT_PROTOCOL: IEDB peptide-MHC binding, purified MHC/competitive/fluorescence; filed as Kd, often an IC50 or EC50 that approximates it; bounds were set here for any values at or beyond the usual limits of such assays
MEASUREMENT_CONDITIONS: source organism: Corynebacterium glutamicum ATCC 13032
ENDPOINT: pKd
Entry type: numeric. Quantity: pKd, the -log10 of concentration in molar units.

If you can, please state the reported pKd value of "RIFPATHYV" .
6.70

----------
We begin with a simple list: items and their reported pKd.
STUDY_SYSTEM: HLA-A*11:01
MEASUREMENT_PROTOCOL: IEDB peptide-MHC binding, purified MHC/competitive/radioactivity; filed as Kd, often an IC50 or EC50 that approximates it; bounds were set here for any values at or beyond the usual limits of such assays
MEASUREMENT_CONDITIONS: source organism: Dengue virus 1 Brazil/97-11/1997
Please keep in mind that pKd is minus log10 of the molar concentration; only the number is needed.

INSERT INTO results (macromolecule_sequence, endpoint, value_observed) VALUES
  ('MVLLTMKEK', 'pKd', 6.44);

With those in mind, consider the next sequence.
Record request: pKd value, item "AIKVLRGFKK"
6.09

----------
STUDY_SYSTEM: HLA-B*08:01
MEASUREMENT_PROTOCOL: IEDB peptide-MHC binding, purified MHC/competitive/radioactivity; filed as Kd, often an IC50 or EC50 that approximates it; bounds were set here for any values at or beyond the usual limits of such assays
MEASUREMENT_CONDITIONS: source organism: Dengue virus 2 Peru/IQT2913/1996
ENDPOINT: Kd
Quote the value and follow it with the unit of measurement.

Given the sequence "LMMTTIGIVL" , what is its reported Kd?
5.9 µM

----------
STUDY_SYSTEM: HLA-C*05:01
MEASUREMENT_PROTOCOL: IEDB peptide-MHC binding, purified MHC/direct/fluorescence; filed as Kd, often an IC50 or EC50 that approximates it; bounds were set here for any values at or beyond the usual limits of such assays
MEASUREMENT_CONDITIONS: source organism: SARS-CoV1
ENDPOINT: Kd

Form field: Kd recorded for "APYMVGDVI" with HLA-C*05:01 (enter value)
≥ 20 µM

----------
STUDY_SYSTEM: HLA-B*83:01
MEASUREMENT_PROTOCOL: IEDB peptide-MHC binding, purified MHC/competitive/fluorescence; filed as Kd, often an IC50 or EC50 that approximates it; bounds were set here for any values at or beyond the usual limits of such assays
MEASUREMENT_CONDITIONS: source organism: Rattus norvegicus
ENDPOINT: Kd

Would you mind telling me what Kd value was observed for "YYRYPTGESY" ?
≥ 5 µM

----------
STUDY_SYSTEM: HLA-B*08:01
MEASUREMENT_PROTOCOL: IEDB peptide-MHC binding, purified MHC/competitive/radioactivity; filed as Kd, often an IC50 or EC50 that approximates it; bounds were set here for any values at or beyond the usual limits of such assays
MEASUREMENT_CONDITIONS: source organism: Dengue virus 1 Brazil/97-11/1997
ENDPOINT: Kd
Express the reported value numerically, then name its unit.

Example entries and their recorded answers appear below.
INSERT INTO measurements (macromolecule_sequence, value_observed) VALUES
  ('WTMKIGIGIL', '0.342 µM'),
  ('LLKATLLAV', '0.0127 µM'),
  ('IKRKLRTLIL', '5.8 µM');

Turning to the following sequence.
Request the reported Kd associated with "LAIPPTAGIL"
4.25 µM

----------
STUDY_SYSTEM: HLA-A*24:03
MEASUREMENT_PROTOCOL: IEDB peptide-MHC binding, purified MHC/direct/fluorescence; filed as Kd, often an IC50 or EC50 that approximates it; bounds were set here for any values at or beyond the usual limits of such assays
MEASUREMENT_CONDITIONS: source organism: Influenza A virus (A/tiger/Thailand/CU-T4/04(H5N1))
ENDPOINT: pKd
Just the number, please; pKd means minus log10 of the concentration in mol/L.

Entry under review: "TMLYNKMEF" . Reported pKd?
7.94

----------
STUDY_SYSTEM: HLA-B*44:03
MEASUREMENT_PROTOCOL: IEDB peptide-MHC binding, purified MHC/competitive/radioactivity; filed as Kd, often an IC50 or EC50 that approximates it; bounds were set here for any values at or beyond the usual limits of such assays
MEASUREMENT_CONDITIONS: source organism: SARS coronavirus Tor2
Below, each of the sequences is paired with its reported log10 Kd value.
Please be aware that the numbers have been log10-transformed from Kd in nM.

Here's what some known entries look like.
INSERT INTO results (macromolecule_sequence, value_observed) VALUES
  ('EEVVENPTI', 2.89),
  ('TELEPPCRF', 1.80),
  ('FENKTTLPV', 3.27),
  ('GEDTVWEVQG', 4.21);

I'm curious: which log10 Kd was measured for "QEIQLLAAV" tested on HLA-B*44:03?
1.69

----------
STUDY_SYSTEM: HLA-A*26:01
MEASUREMENT_PROTOCOL: IEDB peptide-MHC binding, purified MHC/competitive/radioactivity; filed as Kd, often an IC50 or EC50 that approximates it; bounds were set here for any values at or beyond the usual limits of such assays
MEASUREMENT_CONDITIONS: source organism: Mammarenavirus choriomeningitidis
ENDPOINT: pKd
A value of pKd is the negative decimal logarithm of a concentration given in moles per litre.

Form field: reported pKd of "EIFSMMVSSF"
8.42

----------
STUDY_SYSTEM: HLA-A*02:01
MEASUREMENT_PROTOCOL: IEDB peptide-MHC binding, purified MHC/direct/fluorescence; filed as Kd, often an IC50 or EC50 that approximates it; bounds were set here for any values at or beyond the usual limits of such assays
MEASUREMENT_CONDITIONS: source organism: Vibrio vulnificus YJ016
ENDPOINT: Kd

Given the sequence "FPLWNTEKI" , what is its reported Kd?
≥ 20 µM

----------
STUDY_SYSTEM: HLA-B*53:01
MEASUREMENT_PROTOCOL: IEDB peptide-MHC binding, purified MHC/competitive/radioactivity; filed as Kd, often an IC50 or EC50 that approximates it; bounds were set here for any values at or beyond the usual limits of such assays
MEASUREMENT_CONDITIONS: source organism: Dengue virus 3 Martinique/1243/1999
ENDPOINT: pKd
Kindly note that pKd refers to -log10 of the concentration in mol/L and answer with the value alone.

INSERT INTO results (macromolecule_sequence, value_observed) VALUES
  ('HPGFTILALF', 8.98),
  ('NPTVDGIMTI', 6.67);

Now look at this entry.
Endpoint output: pKd of "VPMSTYGWNI" . Value?
7.35

// data source = the Immune Epitope Database (IEDB)
